# assay name: Blood Brain Barrier Penetration (brain to plasma ratio)
# Assay type: in vivo
# test settings: male, Swiss Outbred, mouse, brain and plasma; Oral dosing, at 240 min; read-out: Brain to Plasma Ratio (B:P)
measurement name: Kp at 4 h
Numbers only.

Would you please look over these solved cases?
CCNCc1nc2c(O)c(Cl)cc(Cl)c2c(=O)n1CC    0.64
Br.CCn1c(CNC)nc2c(O)c(Cl)cc(Cl)c2c1=O    0.22
Br.CCNCc1nc2c(O)c(Cl)cc(Cl)c2c(=O)n1C    1.97

Let's switch to this compound now.
Ask: Any idea what Kp at 4 h was measured for CCN(CC)Cc1nc2c(O)c(Cl)cc(Cl)c2c(=O)n1CC1CC1 ?
Reply: 0.42
